# Tested on: T1, Recombinant Human DLL4 (delta-like protein 4) (human, UniProt Q9NR61 27-524)
# T1 construct: Bought recombinant protein (R&D Systems Cat#1506-D4/CF); also called rHuman DLL4; Delta-like 4
# Assay explanation: ELISA, DLL4 coated on plate; Fab at 1.23 (head prints µM, text says nM)
Reported ELISA signal values are given for each entry in this list.
Provide a numeric answer; units are not to be included.

>  <Binder>
Fab VH5-51_IGHD5-18*01>3_IGHJ4*01 G100K/G104T G24T/S28R/G35V (H:KT TRV) & V3-4_IGLJ1*01 V91L/S96P S52G (Fab, V domains shown, Tested as a Fab made in E. coli; also called H:KT TRV & L:LP S52G) VH: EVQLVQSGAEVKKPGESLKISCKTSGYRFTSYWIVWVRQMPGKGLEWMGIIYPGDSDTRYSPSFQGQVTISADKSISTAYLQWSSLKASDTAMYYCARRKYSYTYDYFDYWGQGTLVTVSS VL: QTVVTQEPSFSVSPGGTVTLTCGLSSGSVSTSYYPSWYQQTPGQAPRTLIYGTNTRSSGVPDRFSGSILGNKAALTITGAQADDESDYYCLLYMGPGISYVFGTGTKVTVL

>  <ELISA signal>
0.03

$$$$

## Task Please give the measured ELISA signal for this binder: Fab VH5-51_IGHD5-18*01>3_IGHJ4*01 G100K/G104T G24T/S28R/G35V (H:KT TRV) & V3-4_IGLJ1*01 (Fab, V domains shown, Tested as a Fab made in E. coli; also called H:KT TRV & L:wt; Wildtype (light chain)) VH: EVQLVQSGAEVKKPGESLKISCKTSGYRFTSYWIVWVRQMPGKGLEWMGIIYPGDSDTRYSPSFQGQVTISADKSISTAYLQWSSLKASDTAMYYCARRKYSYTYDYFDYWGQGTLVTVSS VL: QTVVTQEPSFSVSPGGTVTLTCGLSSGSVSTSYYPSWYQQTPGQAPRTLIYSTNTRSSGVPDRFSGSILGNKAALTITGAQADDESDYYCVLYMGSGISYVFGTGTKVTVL
## Result 0.01

## Task Please give the measured ELISA signal for this binder: Fab VH5-51_IGHD5-18*01>3_IGHJ4*01 G100K/G104T G24T/S28R/G35V (H:KT TRV) & V3-4_IGLJ1*01 V91L/S96P (L:LP) (Fab, V domains shown, Tested as a Fab made in E. coli; also called H:KT TRV & L:LP) VH: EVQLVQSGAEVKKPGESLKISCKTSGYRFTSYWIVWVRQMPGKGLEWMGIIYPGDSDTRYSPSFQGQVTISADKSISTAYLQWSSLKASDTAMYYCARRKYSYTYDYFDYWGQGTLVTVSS VL: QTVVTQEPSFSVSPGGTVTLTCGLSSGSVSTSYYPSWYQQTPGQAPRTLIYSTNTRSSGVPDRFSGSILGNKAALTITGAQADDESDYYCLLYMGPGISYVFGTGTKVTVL
## Result 0.03

## Task Please give the measured ELISA signal for this binder: Fab VH5-51_IGHD5-18*01>3_IGHJ4*01 G100K/G104T G24T/S28R/G35V (H:KT TRV) & V3-4_IGLJ1*01 V91L/S96P S52M (Fab, V domains shown, Tested as a Fab made in E. coli; also called H:KT TRV & L:LP S52M) VH: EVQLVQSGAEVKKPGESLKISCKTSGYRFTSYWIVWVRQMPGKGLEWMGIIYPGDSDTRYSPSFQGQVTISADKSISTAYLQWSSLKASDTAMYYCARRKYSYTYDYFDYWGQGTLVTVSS VL: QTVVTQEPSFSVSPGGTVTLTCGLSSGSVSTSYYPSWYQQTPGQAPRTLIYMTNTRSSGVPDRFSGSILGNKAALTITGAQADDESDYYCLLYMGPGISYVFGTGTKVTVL
## Result 0.03
